Target: KCNQ2/3 channels (Homo sapiens, UniProt O43525+O43526)
Construct: expressed in transfected cells; host or cells: CHO-K1 cells
Experiment: Fluorescence assay using a voltage-sensitive dye (fluorimetry)
Format: cell-based
Conditions: at 1 μM; 50 μM retigabine = 100%; CHO-K1 cells expressing KCNQ2/3; read-out: Fluorimetry % efficacy at 1 μM (50 μM retigabine = 100%)
endpoint.label: Emax at 1 µM (%)

* Cc1c(C(=O)NCc2cccc(F)c2)c(SC(C)(C)C)nc2cc(C(F)(F)F)ccc12 [compound 93] | 157
* CCSc1nc2cc(C(F)(F)F)ccc2c(C)c1C(=O)NCc1cc(F)c(F)c(F)c1 [compound 33] | 162

[1] CCSc1nc2cc(C(F)(F)F)ccc2c(C)c1C(=O)NCc1ccc(C(C)(C)C)cc1 [compound 36]
[2] CCCSc1nc2cc(C(F)(F)F)ccc2c(C)c1C(=O)NCc1cccc(F)c1 [compound 46]
Determine, for 1 and 2 , which has the greater value of Emax at 1 µM. // respond with label for picked entry
2
